# experimental-system: L-lysine α-oxidase (Trichoderma viride, UniProt A0A0G4DCU0)
# Construct: mature processed form
# Sequence (A0A0G4DCU0 77-617): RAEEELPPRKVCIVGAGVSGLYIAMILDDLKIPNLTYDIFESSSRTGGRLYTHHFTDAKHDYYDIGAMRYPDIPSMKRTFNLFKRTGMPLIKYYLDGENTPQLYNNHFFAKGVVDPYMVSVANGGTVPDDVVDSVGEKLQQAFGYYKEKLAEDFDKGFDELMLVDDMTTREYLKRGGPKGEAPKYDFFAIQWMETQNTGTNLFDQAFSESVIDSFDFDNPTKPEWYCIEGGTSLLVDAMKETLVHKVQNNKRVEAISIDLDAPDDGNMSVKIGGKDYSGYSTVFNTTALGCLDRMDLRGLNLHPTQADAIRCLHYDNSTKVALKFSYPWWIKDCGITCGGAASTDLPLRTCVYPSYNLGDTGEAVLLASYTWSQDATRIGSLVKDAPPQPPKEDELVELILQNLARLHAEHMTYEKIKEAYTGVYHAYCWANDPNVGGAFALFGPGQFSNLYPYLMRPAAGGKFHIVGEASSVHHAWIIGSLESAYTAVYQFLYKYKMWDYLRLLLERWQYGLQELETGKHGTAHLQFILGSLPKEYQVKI
# test: Substrate specificity, relative enzyme activity by oxygen-electrode method
# Format: biochemical
# test-settings: substrate 10 mM, purified enzyme, L-Lysine = 100
property-measured: Relative activity (%)

What the record says about N[C@@H](CO)C(=O)O [L-Serine] : Relative activity (%) is < 0.5%

// field: Relative activity (%); key: CSCC[C@H](N)C(=O)O [L-Methionine] ; value = < 0.5%

The recorded Relative activity (%) for O=C(O)[C@@H]1CCCN1 [L-Proline] is < 0.5%

Quick note, Relative activity (%) for CC(N)CSC[C@H](N)C(=O)O (stereo partly drawn) [S-(β-Aminopropyl-L-cysteine] landed at 34.8%

// recorded Relative activity (%) for N[C@@H](CCC(=O)O)C(=O)O [L-Glutamic acid] : < 0.5%

Reported Relative activity (%) ( NCC(=O)O [L-Glycine] ) = < 0.5%

Data point: NCCC[C@H](N)C(=O)O [L-Ornithine] ; Relative activity (%) = 18.2%

Form field Relative activity (%), entry N[C@@H](CSCCc1ccncc1)C(=O)O [S-(β-4-Pyridylethyl)-L-cysteine] : 2.7%

The compound identified as CC(=O)NCCCC[C@H](N)C(=O)O [ε-N-Acetyl-L-lysine] registered its Relative activity (%) at < 0.5%

Sample N=C(N)NCCC[C@H](N)C(=O)O [L-Arginine] ; Relative activity (%) observed: 6.1%

Looking up NCCCCC(=O)O [δ-Aminovareric acid] , I see its Relative activity (%) listed as < 0.5%

The compound listed as NCCCCN [Putrescine] shows Relative activity (%) equal to < 0.5%

compound O=C(O)[C@@H]1C[C@@H](O)CN1 [L-Hydroxyproline] , Relative activity (%) observed: < 0.5%

Values were extracted from patent US4234691A.
